tested on: ACHN renal; assay: NCI tumour cell line growth inhibition, 48 h
PROPERTY NAME: TGI

Consider the worked cases shown below.
COMPOUND	TGI
CCCCCCCCCCC(O)[C@H]1CCC(C2CC[C@H]([C@H](O)CCCCCCCCCCC(O)CC3=CC(C)OC3=O)O2)O1 (stereo partly drawn)	2.9 µM
CC1CC(c2cccc3c2OCO3)=Nc2ccccc2S1 (stereo not drawn)	> 100 µM

Proceeding to the next compound to report its TGI.
Entry "CCC(CC)n1cc(C(=O)NC(=O)NCCCCCOC(=O)CCCCCCCCCCC(=O)OCCCCCNC(=O)NC(=O)c2cn(C(CC)CC)c(=O)[nH]c2=O)c(=O)[nH]c1=O" needs its TGI filled in; supply it.
> 100 µM

----------
tested on: A549 NSCLC; experiment: NCI tumour cell line growth inhibition, 48 h
Exercise: state measured TGI for each of the compounds provided.

STRUCTURE AS SMILES	TGI
C/C(=C\c1ccn(-c2ccc(N)c(F)c2)n1)[C@@H]1C[C@@H]2O[C@]2(C)CCC[C@H](C)[C@H](O)[C@@H](C)C(=O)C(C)(C)[C@@H](O)CC(=O)O1	> 50 µM
CC1=C(C(=O)Nc2cccc(Cl)c2)C(c2ccc([N+](=O)[O-])cc2)C(C(=O)Nc2cccc(Cl)c2)=C(C)N1	> 100 µM
Cc1cccc(NC(=O)c2cc3cc(N=Nc4ccccc4Cl)ccc3oc2=O)c1	> 100 µM

Proceeding to the next compound to report its TGI.
Entry "COc1ccc(N(C)Sc2ccccc2)cc1" needs its TGI filled in; supply it.
> 100 µM

----------
tested on: MDA-MB-435; assay: NCI tumour cell line growth inhibition, 48 h; in the data active = GI50 below about 0.43 µM; inactive = the rest
Outcome field: choose from active, inactive

Answered examples (2):
STRUCTURE AS SMILES	CLASS NAME
Cc1nc2cnc3cc(F)c(-c4ccc(Oc5ncccn5)cc4Cl)cc3c2n1[C@H]1CCN(C(=O)CO)C[C@@H]1F	active
COc1cc2c3c(n(CCCNCC(OC)OC)c(=O)c2cc1OC)-c1cc2c(cc1C3=O)OCO2	inactive

What did this assay record as the result for "C=CC(=O)N1CCN(c2nc(OC[C@@H]3CCCN3C)nc3c2CCN(c2cccc4cccc(C)c24)C3)C[C@@H]1CC#N" ?
inactive

----------
Exercise: state measured TGI for each of the molecules provided.
tested on: SK-OV-3 ovarian; test: NCI tumour cell line growth inhibition, 48 h

Hi, could you look up TGI for each item in my list?
1. CC1=CCC(OC(=O)C(C)(C)CCC(O)(C(=O)OC2(C(C)C)CCC3(C)OC3C2)C(C)C)(C(C)C)CC1 (stereo not drawn)
2. NC(=O)NO
3. O=C(Cn1cc(F)c(=O)[nH]c1=O)C12CC3CC(CC(C3)C1)C2
4. COc1cc(C(O)c2nc3ccccc3s2)cc(OC)c1OC (stereo not drawn)
5. C=C1CC2(C[C@@H](c3ccccc3)O[C@@H](c3ccccc3)C2)OC1=O (stereo partly drawn)
6. Cc1ccccc1NC(=O)C(=O)CC(=O)c1sc(Nc2ccccc2[N+](=O)[O-])nc1C
7. C=C1C(=O)OC2C1CC[C@H](C)C13OC(=O)CC1[C@@]23C (stereo partly drawn)

5.81 µM
> 2500 µM
> 100 µM
> 100 µM
27.8 µM
58.7 µM
> 100 µM

Hi, could you look up TGI for each item in my list?
1. COc1c(OC)c(N)c2cc(C)c(=O)c(C)cc2c1N
2. N#CCC(=O)c1cc(OCc2cc(OCc3ccc(Br)cc3)cc(OCc3ccc(Br)cc3)c2)cc(OCc2cc(OCc3ccc(Br)cc3)cc(OCc3ccc(Br)cc3)c2)c1
3. CC1CC2C(=O)N(c3ccccc3)C(=O)C2c2c1c1ccccc1n2Cc1ccccc1 (stereo not drawn)
4. COc1cc(NCc2ccc3nc(-c4ccccc4)c(N)nc3c2)cc(OC)c1OC
5. C[C@]12CC[C@@H]3c4ccc(O)cc4CC[C@H]3[C@@H]1CC[C@@H]2NS(=O)(=O)c1cccc(C(F)(F)F)c1
6. CCOC(=O)c1cc(C2CCN(CC(C)CC)C2=S)c(-c2cc(C)no2)[nH]1 (stereo not drawn)

1. > 100 µM
2. > 100 µM
3. > 100 µM
4. > 100 µM
5. 15.3 µM
6. > 100 µM

----------
tested on: PC-3 prostate; assay: NCI tumour cell line growth inhibition, 48 h
Where a SMILES comes first, the peptide text is derived from it. The star is where a group is joined. Cbz = O=C(OCc1ccccc1)*; Boc = CC(C)(C)OC(=O)*; Bn = c1ccc(C*)cc1
PROPERTY NAME: TGI

COMPOUND	ENDPOINT VALUE
C=C(C)[C@@H]1CC[C@]2(C(=O)NCCNCCNCCN)CC[C@]3(C)[C@H](CC[C@@H]4[C@@]5(C)CC[C@H](O)C(C)(C)[C@@H]5CC[C@]43C)[C@@H]12	18.6 µM
Nc1ncnc2c1ncn2CC(O)C(=O)O (stereo not drawn)	> 100 µM
C=CCOC1=C(OCC=C)C(C2COC(C)(C)O2)OC1=O (stereo not drawn)	> 100 µM
CCc1cccc2c3c(sc12)C(c1ccc(Cl)cc1)C(C#N)=C(N)O3 (stereo not drawn)	10.7 µM

Hi, could you look up TGI for each item in my list?
1. O=C(c1ccco1)n1c2ccc(Br)cc2c2nc3ccccc3nc21
2. CC(C)(C)OC(=O)NC(Cc1ccc(OCc2ccccc2)cc1)C(=O)NC(CCCCNC(=O)OCc1ccccc1)C(=O)O (stereo not drawn) (Boc-Tyr(Bn)-Lys(Cbz)-OH; configuration not given here)
3. N#CCC(=O)c1cc(OCc2cc(OCc3ccc(Br)cc3)cc(OCc3ccc(Br)cc3)c2)cc(OCc2cc(OCc3ccc(Br)cc3)cc(OCc3ccc(Br)cc3)c2)c1
4. C=CCOC1OC(CS(=O)(=O)O)C(O)C(O)C1O (stereo not drawn)
5. Cc1nn(C(=O)c2ccncc2)c2c1C(c1ccc(Cl)cc1)SC(N)=N2 (stereo not drawn)
6. N=c1c2c(-c3ccccc3)c(-c3ccccc3)n(Cc3ccccc3)c2ncn1CCCO

1. > 100 µM
2. > 100 µM
3. > 100 µM
4. > 100 µM
5. > 10 µM
6. 12.2 µM

Hi, could you look up TGI for each item in my list?
1. c1cc(CSP234N5CCN2CCN3CCN4CC5)ccc1CSP123N4CCN1CCN2CCN3CC4
2. CC(CN1CCN(C)CC1)CN1c2ccccc2Sc2ccc(C(F)(F)F)cc21 (stereo not drawn)
3. c1cc(CCN2CCCCC2)ccn1
4. CC1=CCC(OC(=O)C(C)(C)CCC(O)(C(=O)OC2(C(C)C)CCC3(C)OC3C2)C(C)C)(C(C)C)CC1 (stereo not drawn)
5. CC(=O)OC1COC(n2nc(/C=C/c3ccc(Cl)cc3)c(=O)n(/N=C/c3ccccc3)c2=S)C(OC(C)=O)C1OC(C)=O (stereo not drawn)
6. CC1(C)C2CCC(N)(C2)C1N (stereo not drawn)

1: > 100 µM; 2: 5.21 µM; 3: > 100 µM; 4: 0.987 µM; 5: > 100 µM; 6: > 100 µM

Hi, could you look up TGI for each item in my list?
1. COc1cc(C[C@H]2C(=O)OC[C@@H]2Cc2ccc(OC)c(OC)c2)cc(OC)c1
2. N#Cc1c(N)nc(N2CCOCC2)c(C#N)c1-c1ccc(Cl)cc1

> 100 µM
70.1 µM

Hi, could you look up TGI for each item in my list?
1. CCCCNc1c(CN)cnc2cc(Cl)ccc12
2. O=C1c2ccc3c4c5ccc(c24)C(=O)N1CCCOCCCCOCCCNCc1ccc(cc1)CNCCCOCCCCOCCCN(C3=O)C5=O
3. Cc1cc(C)nc(NC(=S)Nc2ccccc2Cl)c1
4. Cc1ccc2cc3c(ccc4ccccc43)c3c2c1CC3
5. N#Cc1cccc(C(=O)Nc2cccc(NC(=O)c3cccc(C#N)c3)c2)c1

43.1 µM
2.76 µM
> 100 µM
> 100 µM
> 100 µM

----------
tested on: DLD-1 colon; test: NCI tumour cell line growth inhibition, 48 h
Exercise: state measured TGI for each of the compounds provided.

COMPOUND	ENDPOINT VALUE
Fc1cccc2cc3ccc4cccc5ccc(c12)c3c45	> 100 µM
CC1CC(c2cccc3c2OCO3)=Nc2ccccc2S1 (centres undefined)	> 100 µM
COCC1N=C(c2cc(OC)c(OC)c(OC)c2-c2cc3c(cc2C2OCCCO2)OCO3)O[C@H]1c1ccccc1 (some centres undefined)	> 100 µM
O/N=C/c1cc2c(cc1Br)OCO2	> 100 µM
O=C1/C(=C/c2ccc3c(c2)OCO3)CCC1CN1CCOCC1 (centres undefined)	6.31 µM
COc1ccc(C2=NN(C(=O)COc3ccc(Cl)cc3)C(O)(c3ccc(Cl)cc3)C2)cc1 (centres undefined)	> 100 µM
O=c1[nH]nc2ccccc2c1Cl	22.8 µM
C=CN1C(=O)OC[C@@H]1c1ccccc1	> 100 µM

Entry "O=C1C=C[C@@]23C[C@@H](Nc4c(O)c5c6c(c42)=NCCC=6C=N5)SC3=C1" needs its TGI filled in; supply it.
3.22 µM
